The entries below are paired with their reported fold change of affinity.
- experimental-system: T1, Human CD137 ECD (human)
- T1 construct: entry includes C-terminal His-tag and biotin acceptor peptide; also called human CD137 extracellular domain; 4-1BB
- T1 sequence (chain, as listed by the source limits assumed): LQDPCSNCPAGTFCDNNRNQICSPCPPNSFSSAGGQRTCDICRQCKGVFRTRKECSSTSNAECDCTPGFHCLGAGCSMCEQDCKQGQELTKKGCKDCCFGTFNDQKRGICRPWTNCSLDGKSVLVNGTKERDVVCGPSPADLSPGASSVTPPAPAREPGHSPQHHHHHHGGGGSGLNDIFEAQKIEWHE
- experiment: Biacore SPR, vs parent H183/L072
Quick reminder: number only, in fold, skip the unit.

Consider the worked cases shown below.
H183/L072 VL R29S (antibody, name in Kabat numbering, V domains shown, Dual-Ig) VH: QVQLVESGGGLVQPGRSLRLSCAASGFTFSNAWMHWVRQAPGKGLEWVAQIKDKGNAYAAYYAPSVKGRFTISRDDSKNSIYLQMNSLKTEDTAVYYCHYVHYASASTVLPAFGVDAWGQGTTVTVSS VL: DIVMTQSPLSLPVTPGEPASISCQASQELVHMNSNTYLHWYQQKPGQAPRLLIYKVSNRFPGVPDRFSGSGSGTDFTLKISRVEAEDVGVYYCAQGTSVPFTFGQGTKLEIK | 0.9
H183/L072 VL N30Q (antibody, name in Kabat numbering, V domains shown, Dual-Ig) VH: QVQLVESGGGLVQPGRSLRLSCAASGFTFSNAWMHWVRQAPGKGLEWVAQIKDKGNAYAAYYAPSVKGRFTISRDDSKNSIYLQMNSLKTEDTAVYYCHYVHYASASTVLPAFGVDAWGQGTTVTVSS VL: DIVMTQSPLSLPVTPGEPASISCQASQELVHMNRQTYLHWYQQKPGQAPRLLIYKVSNRFPGVPDRFSGSGSGTDFTLKISRVEAEDVGVYYCAQGTSVPFTFGQGTKLEIK | 1
H183/L072 VL A25P (antibody, name in Kabat numbering, V domains shown, Dual-Ig) VH: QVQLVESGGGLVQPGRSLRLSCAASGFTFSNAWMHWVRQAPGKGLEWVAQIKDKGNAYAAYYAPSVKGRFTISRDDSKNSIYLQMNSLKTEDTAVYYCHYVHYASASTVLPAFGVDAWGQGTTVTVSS VL: DIVMTQSPLSLPVTPGEPASISCQPSQELVHMNRNTYLHWYQQKPGQAPRLLIYKVSNRFPGVPDRFSGSGSGTDFTLKISRVEAEDVGVYYCAQGTSVPFTFGQGTKLEIK | 1.4
H183/L072 VL R29V (antibody, name in Kabat numbering, V domains shown, Dual-Ig) VH: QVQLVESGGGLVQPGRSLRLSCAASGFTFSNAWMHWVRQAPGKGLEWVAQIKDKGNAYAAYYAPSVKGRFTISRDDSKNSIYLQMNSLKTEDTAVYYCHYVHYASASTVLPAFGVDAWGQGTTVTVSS VL: DIVMTQSPLSLPVTPGEPASISCQASQELVHMNVNTYLHWYQQKPGQAPRLLIYKVSNRFPGVPDRFSGSGSGTDFTLKISRVEAEDVGVYYCAQGTSVPFTFGQGTKLEIK | 0.3
H183/L072 VL H27dK (antibody, name in Kabat numbering, V domains shown, Dual-Ig) VH: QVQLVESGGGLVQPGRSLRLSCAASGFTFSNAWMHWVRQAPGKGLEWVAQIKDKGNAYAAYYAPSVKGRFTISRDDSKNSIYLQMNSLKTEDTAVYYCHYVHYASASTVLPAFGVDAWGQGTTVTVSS VL: DIVMTQSPLSLPVTPGEPASISCQASQELVKMNRNTYLHWYQQKPGQAPRLLIYKVSNRFPGVPDRFSGSGSGTDFTLKISRVEAEDVGVYYCAQGTSVPFTFGQGTKLEIK | 0.6
H183/L072 VL T31D (antibody, name in Kabat numbering, V domains shown, Dual-Ig) VH: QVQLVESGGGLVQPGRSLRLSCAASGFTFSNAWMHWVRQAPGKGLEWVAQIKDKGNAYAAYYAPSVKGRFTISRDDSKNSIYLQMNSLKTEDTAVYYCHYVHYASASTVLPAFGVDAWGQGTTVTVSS VL: DIVMTQSPLSLPVTPGEPASISCQASQELVHMNRNDYLHWYQQKPGQAPRLLIYKVSNRFPGVPDRFSGSGSGTDFTLKISRVEAEDVGVYYCAQGTSVPFTFGQGTKLEIK | 0.1
H183/L072 VL T97P (antibody, name in Kabat numbering, V domains shown, Dual-Ig) VH: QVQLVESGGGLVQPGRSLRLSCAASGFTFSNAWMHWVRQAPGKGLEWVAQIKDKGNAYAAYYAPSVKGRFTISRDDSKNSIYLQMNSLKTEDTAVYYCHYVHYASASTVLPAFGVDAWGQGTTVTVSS VL: DIVMTQSPLSLPVTPGEPASISCQASQELVHMNRNTYLHWYQQKPGQAPRLLIYKVSNRFPGVPDRFSGSGSGTDFTLKISRVEAEDVGVYYCAQGTSVPFPFGQGTKLEIK | 0
H183/L072 VL T31W (antibody, name in Kabat numbering, V domains shown, Dual-Ig) VH: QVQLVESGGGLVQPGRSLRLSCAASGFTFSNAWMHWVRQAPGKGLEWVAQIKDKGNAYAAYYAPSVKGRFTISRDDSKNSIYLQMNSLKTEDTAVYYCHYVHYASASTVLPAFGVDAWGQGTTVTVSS VL: DIVMTQSPLSLPVTPGEPASISCQASQELVHMNRNWYLHWYQQKPGQAPRLLIYKVSNRFPGVPDRFSGSGSGTDFTLKISRVEAEDVGVYYCAQGTSVPFTFGQGTKLEIK | 0.1
H183/L072 VL V94R (antibody, name in Kabat numbering, V domains shown, Dual-Ig) VH: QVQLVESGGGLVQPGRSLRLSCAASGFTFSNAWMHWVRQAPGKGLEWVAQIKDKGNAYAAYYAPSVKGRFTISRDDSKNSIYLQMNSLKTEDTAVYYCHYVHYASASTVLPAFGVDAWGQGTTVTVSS VL: DIVMTQSPLSLPVTPGEPASISCQASQELVHMNRNTYLHWYQQKPGQAPRLLIYKVSNRFPGVPDRFSGSGSGTDFTLKISRVEAEDVGVYYCAQGTSRPFTFGQGTKLEIK | 0.4

// below: fold change of affinity requested for another binder
**Q:** Query (binder): H183/L072 VL P56I (antibody, name in Kabat numbering, V domains shown, Dual-Ig) VH: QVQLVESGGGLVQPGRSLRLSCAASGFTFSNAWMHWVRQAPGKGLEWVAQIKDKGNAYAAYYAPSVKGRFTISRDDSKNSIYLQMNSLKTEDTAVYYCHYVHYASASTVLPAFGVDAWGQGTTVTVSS VL: DIVMTQSPLSLPVTPGEPASISCQASQELVHMNRNTYLHWYQQKPGQAPRLLIYKVSNRFIGVPDRFSGSGSGTDFTLKISRVEAEDVGVYYCAQGTSVPFTFGQGTKLEIK ; field requested: fold change of affinity
**A:** 0.1
